molecular target: SCD5 (Homo sapiens); construct: host or cells: S. cerevisiae ole1Δ strain (W303 pdr1Δ pdr3Δ background), plasmid pRS316 with TDH3 promoter and CYC1 terminator; assay: Growth inhibition of humanized yeast strain expressing SCD5 as sole desaturase; type: cell-based; conditions: humanized yeast strain, 40 h
pIC50: −log10 of the molar value.

| molecule | censoringQualifier | pIC50 |
| --- | --- | --- |
| COC(=O)N1CCC(c2nc(-c3ccc4cnn(C5CS(=O)(=O)C5)c4c3)no2)CC1 | = | 5.32 |
| CCC(=O)N1CCC(c2noc(-c3ccc(N4CCOCC4)cc3)n2)CC1 | < | 4.35 |
| COCC(COC)n1ncc2ccc(-c3nc(C4CCN(C(=O)OC)CC4)no3)cc21 | = | 4.68 |
| CC(C)(C)OC(=O)N1CCC(c2noc(-c3ccc4cnn([C@H]5C[C@@H](O)C5)c4c3)n2)CC1 | = | 6.70 |
| CC(C)n1ncc2ccc(-c3noc(C4CCN(C(=O)C56CCC(F)(CC5)CC6)CC4)n3)cc21 | = | 5.27 |
| CC(C)(C)OC(=O)N1CCC(/C(N)=N/OC(=O)c2ccc3cnn(C4COC4)c3c2)CC1 | = | 7.57 |
| COC(=O)N1CCC(c2noc(-c3cnc4cnn(C5COC5)c4c3)n2)CC1 | = | 6.60 |
| O=C(C1CC12CC2)N1CCN(c2nnc(-c3ccc4cnn(C5COC5)c4c3)o2)CC1 (centres unmarked) | < | 4.35 |

* * *

Recorded OLE1 % Max Inhibition by entry
molecular target: Ole1 (Saccharomyces cerevisiae, UniProt P21147); construct: expressed in transfected cells; host or cells: S. cerevisiae ole1Δ strain (W303 pdr1Δ pdr3Δ background), plasmid pRS316 with TDH3 promoter and CYC1 terminator; experiment: Growth inhibition of yeast strain expressing Ole1 as sole desaturase; format: cell-based; details: yeast strain expressing Ole1 as sole desaturase
Sequence (P21147 whole entry): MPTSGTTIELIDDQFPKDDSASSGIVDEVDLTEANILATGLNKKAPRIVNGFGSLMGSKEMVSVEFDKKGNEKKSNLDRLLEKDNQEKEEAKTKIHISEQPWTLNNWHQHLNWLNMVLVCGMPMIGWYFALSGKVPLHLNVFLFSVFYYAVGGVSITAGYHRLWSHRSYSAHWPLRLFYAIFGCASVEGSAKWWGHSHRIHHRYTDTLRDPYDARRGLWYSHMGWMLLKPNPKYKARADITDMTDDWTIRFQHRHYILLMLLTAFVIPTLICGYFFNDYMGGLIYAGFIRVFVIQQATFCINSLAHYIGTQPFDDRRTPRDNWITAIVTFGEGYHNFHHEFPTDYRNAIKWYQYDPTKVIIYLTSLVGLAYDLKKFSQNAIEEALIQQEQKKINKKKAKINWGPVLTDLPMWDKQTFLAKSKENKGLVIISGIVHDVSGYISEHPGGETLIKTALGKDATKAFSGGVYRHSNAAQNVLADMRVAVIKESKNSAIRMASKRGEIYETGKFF
measurementKind: OLE1 % Max Inhibition (%)

| compound | value |
| --- | --- |
| Cc1nn(C)c2cc(-c3noc(C4CCN(C(=O)CN5Cc6ccccc6C5=O)CC4)n3)cnc12 [Compound 200] | 2.69 |
| CCOc1ccc(-c2noc(C3CCN(C(=O)[C@H]4CN(c5ccccc5)C(=O)O4)CC3)n2)cc1OC [Compound 148] | 99.90 |
| Cc1nn(C)c2cc(-c3nc(C4CCN(C(=O)C5CC(=O)N(c6cccc(C#N)c6)C5)CC4)no3)ccc12 (centres unmarked) [Compound 331] | 13.7 |
| N#Cc1cccc(N2CC(C(=O)N3CCC(c4nc(N5CC6(COC6)C5)no4)CC3)CC2=O)c1 (centres unmarked) [Compound 332] | 77.0 |
| O=C(CNC(=O)c1ccccc1)NCCc1nc(-c2ccccc2)no1 [Compound 485] | 75.19 |
| CCOc1ccc(-c2noc(C3CCN(C(=O)CN4Cc5cc(F)ccc5C4=O)CC3)n2)cc1OC [Compound 176] | 3.62 |
| CC(C)n1ncc2ccc(-c3noc(C4CCN(C(=O)C5CC(=O)N(c6ccccc6)C5)CC4)n3)cc21 (centres unmarked) [Compound 174] | 89.17 |
| CCOc1cc(-c2noc(C3CCN(C(=O)CNC(=O)c4ccccc4)CC3)n2)ccc1OC [Compound 199] | 24.34 |

* * *

Biological target: SCD5 (Homo sapiens, UniProt Q86SK9)
Construct: host or cells: S. cerevisiae ole1Δ strain (W303 pdr1Δ pdr3Δ background), plasmid pRS316 with TDH3 promoter and CYC1 terminator
Sequence (Q86SK9 1-330): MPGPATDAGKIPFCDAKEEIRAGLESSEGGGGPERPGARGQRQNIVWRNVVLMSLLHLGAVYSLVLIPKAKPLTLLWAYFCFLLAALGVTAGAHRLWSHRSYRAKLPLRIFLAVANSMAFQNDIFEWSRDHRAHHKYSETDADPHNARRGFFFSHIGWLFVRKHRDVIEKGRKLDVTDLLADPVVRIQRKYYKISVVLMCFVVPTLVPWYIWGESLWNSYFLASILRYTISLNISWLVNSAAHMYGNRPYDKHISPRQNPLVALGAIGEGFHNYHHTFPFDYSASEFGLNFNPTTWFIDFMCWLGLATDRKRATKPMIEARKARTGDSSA
Test: Growth inhibition of humanized yeast strain expressing SCD5 as sole desaturase
Type: cell-based
Details: yeast strain expressing human SCD5 as sole desaturase; Table 8
pIC50: −log10 of the molar value.

| molecule | pIC50 |
| --- | --- |
| O=C(C1CC1)N1CCC(c2noc(-c3cc(C4CCOC4)c(F)cn3)n2)CC1 (stereo not drawn) [Compound 1296] | 6.60 |
| CC1CN(c2cc(-c3nc(C4CCN(C(=O)OC(C)(C)C)CC4)no3)ccc2F)CC(C)O1 (stereo not drawn) [Compound 1282] | 6.66 |
| CC(C)(C)OC(=O)N1CCC(c2cc(-c3cnc4cnn(C5CCOC5)c4c3)on2)CC1 (stereo not drawn) [Compound 1233] | 5.18 |
